Can you tell me Kd for the items I'm about to list?
Target: T1, C10orf54 (antigen of the KD values in Table 42) (human, UniProt Q9H7M9 33-311, limits assumed)
T1 sequence: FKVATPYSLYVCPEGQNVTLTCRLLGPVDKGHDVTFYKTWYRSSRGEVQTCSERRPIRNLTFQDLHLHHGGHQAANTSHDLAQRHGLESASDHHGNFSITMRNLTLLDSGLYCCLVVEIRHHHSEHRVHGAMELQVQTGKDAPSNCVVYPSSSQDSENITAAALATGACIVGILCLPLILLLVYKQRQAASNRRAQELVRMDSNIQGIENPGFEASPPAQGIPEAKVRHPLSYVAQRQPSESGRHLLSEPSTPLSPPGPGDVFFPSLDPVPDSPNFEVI
Assay: method and antigen form not stated
Unit nM implied. Number only.

// query Record request: Kd value, item murine monoclonal antibody 76E1 (antibody, V domains shown, Mouse hybridoma antibody) VH: EVQLLQSGPELEKPGASVKISCKASGYSFTGYNMNWVKQSNGKSLEWIGNIDPYYDYTSYNLKFKDKATLTVDKSSSTAYMQLKSLTSEDSAVYYCATSTMITPFDYWGQGTTLTVSS VL: DVLMTQTPLSLPVSLGDQASISCRSSQSIVHSNGNTYLEWYLQKPGQSPKLLIYKVSNRFSGVPDRFSGSGSGTDFTLKINRVEAEDLGVYYCFQGSHVPWTFGGGTKLEIK
// result 10.1

// query Please answer likewise for murine monoclonal antibody 208A (antibody, V domains shown, Mouse hybridoma antibody) VH: QVQLQQSGAELVRPGVSVKISCKGSGYTFTDYGMHWVKQSHAKSLEWIGVIDTYYGDAGYNQKFKGKATMTVDKSSSTAYMELARLTSEDSAIYYCARRAGNAMDYWGQGTSVTVSS VL: SIVMTQTPKFLLVSAGDRVTITCKASQSVSNDVAWYQQKPGQSPKLLIYYASNRYTGVPDRFTGSGYGTDFTFTISTVQAEDLAVYFCQQDYSSPRTFGGGTKLEIK
// result 2.48

// query Please answer likewise for murine monoclonal antibody 39A (antibody, V domains shown, Mouse hybridoma antibody) VH: QVQLQQSGAELMKPGASVKISCKATGYTFSSNWIEWVKQRPGHGLEWIGEILPGSGSTSYNEKFKGKATFTADTSSNTAYMQLSSLTSEDSAVYYCARWLLYYYAMDYWGQGTSVTVSS VL: DVLMTQTPLSLPVSLGDPASISCRSSQSIVHNNGNTYLEWYLQKPGQSPKLLIYKVSNRFSGVPDRFSGSGSGTDFTLKISRVEAEDLGVYYCFQGSHVPYTFGGGTKLEIK
// result 5.79

// query Please answer likewise for murine monoclonal antibody 215A (antibody, V domains shown, Mouse hybridoma antibody) VH: EVQLQQSGPELVKPGASMKISCKASGFSFTGYTMNWVKQSHGKNLEWIGLISPYNGGTSYNQKFKGKATLTVDKSSSTAYMELLSLTSEDSAVYYCARRAYGYAMDYWGQGTSVTVSS VL: QIVLTQSPAIMSASPGEKVTMTCSASSSVSYMFWYQQKPGSSPRLLIYDTSNLASGVPLRFSGSGSGTSYSLTISRMEAEDAATYYCQQWSSYPFTFGSGTKLEIK
// result 1.52

// query Please answer likewise for murine monoclonal antibody 124A (antibody, V domains shown, Mouse hybridoma antibody) VH: QVQLQQSGAELMKPGASVKISCKATGYTFSSNWIEWVKQRPGHGLEWMGEILPGSGSTSYNEKFKGKATFTADTSSNTAYMQLSSLTSEDSAVYYCARWLLYYYAMDFWGQGTSVTVSS VL: DVLMTQTPLSLPVSLGDQASISCRSSQSIVHNNGNTYLEWYLQKPGQSPKLLIYKVSNRFSGVPDRFSGSGSGTDFTLKISRVEAEDLGVYYCFQGSHVPYTFGGGTKLEIK
// result 3.61

Value source: patent US20190177415A1
